Tested on: LNCaP cells
Assay: Inhibition of LNCaP cell proliferation (WST-8)
Assay type: cell-based
Conditions: Homo sapiens, LNCaP FGC cells, 96 hours
Below, each entry is listed with its recorded IC50.
readout_label: IC50 (µM)

[
  {
    "compound": "COc1cc(O[C@H]2C(C)(C)[C@H](NC(=O)c3ccc(N4CCC(CN5CCC6(CC5)COc5c6ccc(C(=O)N[C@H]6CCC(=O)NC6=O)c5F)CC4)cc3)C2(C)C)ccc1C#N",
    "output_unit": "µM",
    "observed_value": 0.71
  },
  {
    "compound": "COc1cc(O[C@H]2C(C)(C)[C@H](NC(=O)c3ccc(N4CCC(CN5CCC6(CCc7cc(C(=O)N[C@H]8CCC(=O)NC8=O)c(F)cc7O6)CC5)CC4)nn3)C2(C)C)ccc1C#N",
    "output_unit": "µM",
    "observed_value": 0.87
  },
  {
    "compound": "COc1cc(O[C@H]2C(C)(C)[C@H](NC(=O)c3ccc(N4CCC(CN5CCC6(CCc7cc(F)c(C(=O)N[C@H]8CCC(=O)NC8=O)cc7O6)CC5)(OC)CC4)cc3)C2(C)C)ccc1C#N",
    "output_unit": "µM",
    "observed_value": 6.56
  },
  {
    "compound": "Cn1c(=O)n(C2CCC(=O)NC2=O)c2ccc3c(c21)OCC31CCN(CC2CCN(c3ccc(C(=O)N[C@H]4CC[C@H](Oc5ccc(C#N)c(Cl)c5)CC4)nn3)CC2)CC1 (stereo partly shown)",
    "output_unit": "µM",
    "observed_value": 22.8
  },
  {
    "compound": "COc1cc(O[C@H]2C(C)(C)[C@H](NC(=O)c3ccc(N4CCC5(CC4)CC(N4CCC6(CC4)COc4cc7c(cc46)n(C)c(=O)n7C4CCC(=O)NC4=O)C5)nn3)C2(C)C)ccc1C#N (relative stereo)",
    "output_unit": "µM",
    "observed_value": 1.1
  },
  {
    "compound": "COc1cc(O[C@H]2C(C)(C)[C@H](NC(=O)c3ccc(N4CCC(C)(CN5CCC6(CCc7cc(C(=O)N[C@H]8CCC(=O)NC8=O)c(F)cc7O6)CC5)CC4)cn3)C2(C)C)ccc1C#N",
    "output_unit": "µM",
    "observed_value": 0.36
  },
  {
    "compound": "COc1cc(O[C@H]2C(C)(C)[C@H](NC(=O)c3ccc(N4CCC(N5CCC6(CC5)COc5c6ccc6c5n(C)c(=O)n6C5CCC(=O)NC5=O)CC4)cc3)C2(C)C)ccc1C#N (stereo partly shown)",
    "output_unit": "µM",
    "observed_value": 15.1
  },
  {
    "compound": "C[C@H]1CC2(CCN(c3ccc(N4CCC(CN5CCN6c7cc(F)c(C(=O)N[C@H]8CCC(=O)NC8=O)cc7OC[C@H]6C5)CC4)cc3)CC2)CN1c1ccc(C#N)c(Cl)c1",
    "output_unit": "µM",
    "observed_value": 0.15
  },
  {
    "compound": "COc1cc(O[C@H]2C(C)(C)[C@H](NC(=O)c3ccc(N4CCC(CN5CCC6(CCc7cc(C(=O)N[C@H]8CCC(=O)NC8=O)c(F)cc7O6)CC5)(OC)CC4)cc3)C2(C)C)ccc1C#N",
    "output_unit": "µM",
    "observed_value": 0.82
  },
  {
    "compound": "COc1cc(O[C@H]2C(C)(C)[C@H](NC(=O)c3ccc(N4CCC(C)(CN5CC6(CCC7(CC6)COc6c7ccc7c6CN(C6CCC(=O)NC6=O)C7=O)C5)CC4)cc3)C2(C)C)ccc1C#N (relative stereo)",
    "output_unit": "µM",
    "observed_value": 3.52
  }
]
